- Experimental system: αvβ6 (Homo sapiens, UniProt P06756+P18564)
- Construct: endogenous in cells
- Sequence (P06756 31-889 limits assumed): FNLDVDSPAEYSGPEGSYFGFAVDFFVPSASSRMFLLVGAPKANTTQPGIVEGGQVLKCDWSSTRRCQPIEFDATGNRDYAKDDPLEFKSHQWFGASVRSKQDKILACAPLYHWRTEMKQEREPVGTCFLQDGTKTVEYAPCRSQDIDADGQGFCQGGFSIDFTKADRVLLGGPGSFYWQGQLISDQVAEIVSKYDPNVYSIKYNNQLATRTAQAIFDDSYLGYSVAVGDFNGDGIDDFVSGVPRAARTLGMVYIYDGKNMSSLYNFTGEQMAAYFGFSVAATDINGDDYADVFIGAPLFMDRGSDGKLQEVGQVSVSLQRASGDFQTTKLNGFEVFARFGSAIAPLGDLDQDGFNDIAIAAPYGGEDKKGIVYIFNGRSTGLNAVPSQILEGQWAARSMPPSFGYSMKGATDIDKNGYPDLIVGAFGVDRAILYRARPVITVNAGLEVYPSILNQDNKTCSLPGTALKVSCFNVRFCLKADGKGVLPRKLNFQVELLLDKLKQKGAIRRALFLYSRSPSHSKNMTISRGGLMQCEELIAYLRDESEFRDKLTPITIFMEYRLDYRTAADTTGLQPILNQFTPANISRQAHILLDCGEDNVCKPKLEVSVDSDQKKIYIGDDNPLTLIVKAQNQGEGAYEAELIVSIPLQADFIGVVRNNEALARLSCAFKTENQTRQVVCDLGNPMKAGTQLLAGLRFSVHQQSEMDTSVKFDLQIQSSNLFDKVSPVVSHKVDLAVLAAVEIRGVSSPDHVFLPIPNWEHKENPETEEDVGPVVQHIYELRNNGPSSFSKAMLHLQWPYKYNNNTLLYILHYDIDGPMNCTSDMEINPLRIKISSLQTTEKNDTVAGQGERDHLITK
- Sequence (P06756 891-1048 limits assumed): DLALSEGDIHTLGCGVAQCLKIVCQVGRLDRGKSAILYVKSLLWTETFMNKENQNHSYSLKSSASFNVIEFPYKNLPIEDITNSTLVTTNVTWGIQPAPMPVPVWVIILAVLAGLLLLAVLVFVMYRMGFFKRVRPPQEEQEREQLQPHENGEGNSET
- Sequence (P18564 22-788): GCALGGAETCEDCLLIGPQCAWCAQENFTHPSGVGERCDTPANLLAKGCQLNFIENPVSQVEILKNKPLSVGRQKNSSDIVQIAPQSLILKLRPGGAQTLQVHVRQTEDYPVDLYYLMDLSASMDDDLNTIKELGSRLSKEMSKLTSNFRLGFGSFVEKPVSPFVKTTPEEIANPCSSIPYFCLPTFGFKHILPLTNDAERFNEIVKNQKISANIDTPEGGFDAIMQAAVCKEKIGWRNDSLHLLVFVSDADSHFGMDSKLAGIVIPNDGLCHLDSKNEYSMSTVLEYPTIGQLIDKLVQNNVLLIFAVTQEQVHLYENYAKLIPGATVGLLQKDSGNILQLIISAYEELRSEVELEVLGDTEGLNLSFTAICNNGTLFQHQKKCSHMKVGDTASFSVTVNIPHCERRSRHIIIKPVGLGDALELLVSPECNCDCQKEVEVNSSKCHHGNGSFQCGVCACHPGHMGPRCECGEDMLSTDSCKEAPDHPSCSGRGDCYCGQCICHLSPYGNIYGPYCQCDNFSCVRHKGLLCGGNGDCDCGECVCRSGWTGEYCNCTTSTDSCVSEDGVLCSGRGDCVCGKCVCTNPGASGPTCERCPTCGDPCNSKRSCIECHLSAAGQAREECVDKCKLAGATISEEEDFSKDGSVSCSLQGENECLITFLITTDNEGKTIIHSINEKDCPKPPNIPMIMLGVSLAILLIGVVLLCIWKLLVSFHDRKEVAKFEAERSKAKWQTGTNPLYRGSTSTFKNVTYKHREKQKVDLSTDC
- Protocol: αvβ6 cell adhesion inhibition test (HT-29 cells on recombinant human LAP protein)
- Protocol conditions: recombinant human LAP coating, 200 μM MnCl2, 1 hour, read-out: IC50 (rate of inhibition of cell adhesion, αvβ6)
pIC50: −log10 of the molar value.
Measure name: pIC50

Query :: Endpoint output: pIC50 of O=C(O)C[C@H](NC(=O)CNC(=O)c1cc(NC2=NCC(F)CN2)c2cn[nH]c2c1)c1cccc(OC(F)F)c1 (some centres unmarked) . Value?
Result :: > 8.52

----------
- Protocol: Transcellular transport test using Caco2 cell
- Format: in vitro ADME
- Protocol conditions: human, Caco-2; Caco2 monolayer, A-to-B, 10 μM compound, pH 7.4, 90 minutes
Measure name: Papp A→B at 90 min, 10 μM

A selection of reference data follows.
# Molecule, Measured
measured = [
    ("O=C(O)C[C@H](NC(=O)CNC(=O)c1cc(NC2=NCC(F)CN2)c2cn[nH]c2c1)c1cccc(C(F)(F)F)c1 (stereo partly drawn)", "> 1 ×10⁻⁶ cm/s"),
    ("O=C(O)C[C@H](NC(=O)CNC(=O)c1cc(NC2=NCC(F)CN2)c2cn[nH]c2c1)c1cc(C(F)(F)F)ccc1Cl (stereo partly drawn)", "> 1 ×10⁻⁶ cm/s"),
    ("O=C(O)C[C@H](NC(=O)CNC(=O)c1cc(NC2=NCC(F)CN2)c2cn[nH]c2c1)c1cc(I)cc(C(F)(F)F)c1 (stereo partly drawn)", "> 1 ×10⁻⁶ cm/s"),
]

Query :: Given the entry O=C(O)C[C@H](NC(=O)CNC(=O)c1cc(NC2=NCC(F)CN2)c2cn[nH]c2c1)c1cc(Br)cc(C(F)(F)F)c1 (stereo partly drawn) , report its measured Papp A→B at 90 min, 10 μM.
Result :: 0.5 to 1 ×10⁻⁶ cm/s

Query :: Suppose we examine the molecule O=C(O)C[C@H](NC(=O)CNC(=O)c1cc(NC2=NCC(F)CN2)c2cn[nH]c2c1)c1cc(Br)cc(OC(F)F)c1 (stereo partly drawn) ; what Papp A→B at 90 min, 10 μM value has been reported?
Result :: > 1 ×10⁻⁶ cm/s

Query :: Reported Papp A→B at 90 min, 10 μM, molecule O=C(O)C[C@H](NC(=O)CNC(=O)c1cc(NC2=NCC(F)CN2)c2cn[nH]c2c1)c1cccc(-n2cccn2)c1 (stereo partly drawn) : ____
Result :: > 1 ×10⁻⁶ cm/s

----------
- Experimental system: αvβ1 (UniProt G3HZ55+P06756)
- Sequence (P06756 31-889 limits assumed): as the sequence (P06756 31-889 limits assumed) above
- Sequence (P06756 891-1048 limits assumed): as the sequence (P06756 891-1048 limits assumed) above
- Sequence (G3HZ55 21-798): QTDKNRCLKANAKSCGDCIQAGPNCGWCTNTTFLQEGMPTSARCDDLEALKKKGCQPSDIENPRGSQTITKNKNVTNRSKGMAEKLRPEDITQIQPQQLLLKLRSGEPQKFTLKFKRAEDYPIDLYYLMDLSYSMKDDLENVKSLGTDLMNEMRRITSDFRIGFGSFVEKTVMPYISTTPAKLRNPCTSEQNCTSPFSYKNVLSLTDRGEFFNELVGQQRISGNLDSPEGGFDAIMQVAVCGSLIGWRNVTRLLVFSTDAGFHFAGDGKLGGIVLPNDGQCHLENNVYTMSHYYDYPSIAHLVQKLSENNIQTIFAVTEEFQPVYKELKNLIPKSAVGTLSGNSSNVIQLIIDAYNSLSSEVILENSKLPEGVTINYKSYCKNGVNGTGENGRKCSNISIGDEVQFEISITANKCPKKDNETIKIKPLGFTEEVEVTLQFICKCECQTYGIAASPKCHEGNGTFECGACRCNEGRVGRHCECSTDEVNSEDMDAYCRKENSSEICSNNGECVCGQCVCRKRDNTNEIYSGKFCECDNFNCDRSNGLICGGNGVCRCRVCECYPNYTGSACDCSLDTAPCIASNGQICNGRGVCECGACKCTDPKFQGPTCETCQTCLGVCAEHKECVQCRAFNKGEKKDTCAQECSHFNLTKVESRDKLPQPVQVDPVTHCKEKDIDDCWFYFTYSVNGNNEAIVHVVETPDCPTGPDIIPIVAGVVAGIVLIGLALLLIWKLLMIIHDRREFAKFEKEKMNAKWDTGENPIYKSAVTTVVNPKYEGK
- Protocol: αvβ1 cell adhesion inhibition test (αv-transfected CHO cells on human fibronectin)
- Protocol conditions: human fibronectin coating, 1 mM MnCl2, 1 hour, read-out: IC50 (rate of inhibition of cell adhesion, αvβ1)
- Description: Test Example 1 was performed by partially modifying the method of Reed et al. (Sci Transl Med., 7 (288), 288ra79, 2015). […] The cell suspension of 1×10^6 cells/mL containing the test compound was added at 100 μL/well to the coated plate and left standing for 1 hour in a 5% CO2 incubator (37° C.). […] The cells that adhered to each well in the plate were stained with crystal violet, and the cells were lysed, followed by absorbance measurement. […]
Collected IC50 values appear next to each entry.

A selection of reference data follows.
# Molecule, Measure name, Measured
rows = [
    ("O=C(O)C[C@H](NC(=O)CNC(=O)c1cc(NC2=NCC(F)CN2)c2cn[nH]c2c1)c1cccc(OC(F)(F)F)c1 (some centres unmarked)", "IC50", "3 to 10 nM"),
    ("O=C(O)C[C@H](NC(=O)CNC(=O)c1cc(NC2=NCC(F)CN2)c2cn[nH]c2c1)c1cccc(OC2CC2)c1 (some centres unmarked)", "IC50", "< 3 nM"),
    ("Cc1ccc([C@H](CC(=O)O)NC(=O)CNC(=O)c2cc(NC3=NCC(F)CN3)c3cn[nH]c3c2)cc1C(F)(F)F (some centres unmarked)", "IC50", "< 3 nM"),
]

Query :: Endpoint output: IC50 of O=C(O)C[C@H](NC(=O)CNC(=O)c1cc(NC2=NCC(F)CN2)c2cn[nH]c2c1)c1cccc(C2CC2)c1 (some centres unmarked) . Value?
Result :: < 3 nM

Query :: // IC50 lookup, key: O=C(O)C[C@H](NC(=O)CNC(=O)c1cc(NC2=NCC(F)CN2)c2cn[nH]c2c1)c1cc(OC(F)F)ccc1F (some centres unmarked)
Result :: < 3 nM

Query :: IC50 for O=C(O)C[C@H](NC(=O)CNC(=O)c1cc(NC2=NCC(F)CN2)c2cn[nH]c2c1)c1cc(Cl)ccc1F (some centres unmarked) ?
Result :: 10 to 30 nM

Query :: Using the record for O=C(O)C[C@H](NC(=O)CNC(=O)c1cc(NC2=NCC(F)CN2)c2cn[nH]c2c1)c1cc(-n2cccn2)cc(C(F)(F)F)c1 (some centres unmarked) , report its IC50.
Result :: < 3 nM

Query :: Please look up its IC50: O=C(O)C[C@H](NC(=O)CNC(=O)c1cc(NC2=NCC(F)CN2)c2cn[nH]c2c1)c1cccc(C(F)F)c1 (some centres unmarked)
Result :: < 3 nM

Query :: Report IC50 for O=C(O)C[C@H](NC(=O)CNC(=O)c1cc(NC2=NCC(F)CN2)c2cn[nH]c2c1)c1cc(Cl)cc(Cl)c1 (some centres unmarked) please.
Result :: < 3 nM

Query :: Find the recorded IC50 belonging to O=C(O)C[C@H](NC(=O)CNC(=O)c1cc(NC2=NCC(F)CN2)c2cn[nH]c2c1)c1cccc(C(F)(F)F)c1F (some centres unmarked) and report it.
Result :: 3 to 10 nM
